Origin of measurements: patent US9120787B2

Tested on: HIV-1Ba-L
Assay: Inhibition of virus replication in MAGI-CCR5 cells (β-galactosidase reporter)
Type: cell-based
Details: HIV-1Ba-L in MAGI-CCR5 cells
outcomeMeasure: TI (TC50/IC50)

Study these solved cases before continuing.
compound	TI (TC50/IC50)
CC1=C(c2nc(-c3ccccc3)cs2)C(c2cccc(O)c2)NC(=O)N1 (centres unmarked)	D (D < 10.0)
COc1ccc(C2NC(=O)NC(C)=C2c2nc(-c3ccc(C#N)cc3)cs2)cc1 (centres unmarked)	B (B < 100.0-50.0)
CC1=C(c2nc(-c3ccc(C#N)cc3)cs2)C(c2nccn2C)NC(=O)N1 (centres unmarked)	D (D < 10.0)
CC1=C(c2nc(-c3ccc(C#N)cc3)cs2)C(c2cc(C(F)(F)F)cc(C(F)(F)F)c2)NC(=O)N1 (centres unmarked)	D (D < 10.0)
CC1=C(c2nc(-c3ccc(F)cc3)cs2)C(Cc2ccccc2)NC(=O)N1 (centres unmarked)	D (D < 10.0)

Could you share which TI (TC50/IC50) value was measured for CC1=C(c2nc(-c3ccc(C#N)cc3)cs2)C(c2cccc(C(F)(F)F)c2)NC(=O)N1 (centres unmarked) ?
B (B < 100.0-50.0)

----------
Tested on: HIV-1Ba-L
Assay: Inhibition of virus replication in MAGI-CCR5 cells (β-galactosidase reporter)
Assay type: cell-based
Settings: HIV-1Ba-L in MAGI-CCR5 cells
outcomeMeasure: TI (TC50/IC50)

compound	outcomeMeasure	result
COc1ncc(C2NC(=O)NC(C)=C2c2nc(-c3ccc(C#N)cc3)cs2)c(OC)n1 (stereo not shown) [Example 32]	TI (TC50/IC50)	D (D < 10.0)
COc1ccc(-c2csc(C3=C(C)NC(=O)NC3c3cccc(C(F)(F)F)c3)n2)cc1 (stereo not shown) [Example 45]	TI (TC50/IC50)	D (D < 10.0)

----------
Test system: HIV-1Ba-L
Assay: Inhibition of virus replication in MAGI-CCR5 cells (β-galactosidase reporter)
Format: cell-based
Conditions: HIV-1Ba-L in MAGI-CCR5 cells

compound	TI (TC50/IC50)
CC1=C(c2nc(-c3ccc4ccccc4c3)cs2)C(c2cccc(O)c2)NC(=O)N1 (stereo not shown) [Example 36]	D (D < 10.0)
COc1ccc(-c2csc(C3=C(C)NC(=O)NC3c3ccc(Cl)nc3)n2)cc1 (stereo not shown) [Example 41]	D (D < 10.0)

----------
Test system: HIV-1Ba-L
Test: HIV-1Ba-L replication in PBMCs (supernatant RT end-point)
Conditions: Virus Ba-L in PBMCs (Ba-L vs A17 comparison)

compound	system	TI (TC50/IC50)
CC1=C(c2nc(-c3ccc(C#N)cc3)cs2)C(c2cnc3ccccc3n2)NC(=O)N1 (stereo not shown) [Example 21]	HIV-1Ba-L	D (D < 10.0)
CC1=C(c2nc(-c3ccc(F)cc3)cs2)C(Cc2ccccc2)NC(=O)N1 (stereo not shown) [Example 89]	HIV-1Ba-L	D (D < 10.0)

----------
Test system: HIV-1Ba-L
Assay: HIV-1Ba-L replication in PBMCs (supernatant RT end-point)
Details: HIV-1Ba-L in PBMCs

molecule	TI (TC50/IC50)
CC1=C(c2nc(-c3ccccc3)cs2)C(c2cccc(O)c2)NC(=O)N1 (stereo not shown)	D (D < 10.0)
CC1=C(c2nc(-c3cccc(C#N)c3)cs2)C(c2cccc(O)c2)NC(=O)N1C (stereo not shown)	D (D < 10.0)

----------
Tested on: HIV-1Ba-L
Assay: HIV-1Ba-L replication in PBMCs (supernatant RT end-point)
Conditions: HIV-1Ba-L in PBMCs

molecule	TI (TC50/IC50)
COc1ccc(-c2csc(C3=C(C)NC(=O)NC3c3ccc(F)c([N+](=O)[O-])c3)n2)cc1 (stereo not shown)	D (D < 10.0)
CC(C)(C)NC(=O)[C@@H]1CN(Cc2cccnc2)CCN1C[C@@H](O)C[C@@H](Cc1ccccc1)C(=O)N[C@H]1c2ccccc2C[C@H]1O [Indinavir, reference compound]	>21.0
CC1=C(c2nc(-c3ccc(C#N)cc3)cs2)C(c2ccncc2F)NC(=O)N1 (stereo not shown)	D (D < 10.0)

----------
System: HIV-1Ba-L
Test: Inhibition of virus replication in MAGI-CCR5 cells (β-galactosidase reporter)
Assay type: cell-based
Details: HIV-1Ba-L in MAGI-CCR5 cells
Method: The anti-viral activity of dihydropyrimidines was shown by inhibition of virus replication in MAGI-CCR5 cells. MAGI-CCR5 cells are derived from HeLa-CD4-LTR-β-galactosidase cells. […] Total cell count and viability was visually assessed using a hemacytometer and trypan blue exclusion. Compounds were evaluated at six concentrations (triplicate wells/concentration). […]
outcomeMeasure: TI (TC50/IC50)

compound	result
COc1ccc(-c2csc(C3=C(C)NC(=O)NC3c3ccccc3)n2)cc1 (stereo not shown) [Example 39]	D (D < 10.0)
CC1=C(c2nc(-c3cccc(C#N)c3)cs2)C(c2cccc(O)c2)NC(=O)N1 (stereo not shown) [Example 66]	D (D < 10.0)

----------
Reported CC50 at 7 days by item:
Test: Cytotoxicity by MTS staining in PBMCs
Type: cell-based
Conditions: human, peripheral blood mononuclear cells (PBMC), MTS staining, read-out: TC50

Answered examples (8):
molecule	CC50 at 7 days
CC1=C(c2nc(-c3ccc(C#N)cc3)cs2)C(c2ccc(F)nc2)NC(=O)N1 (stereo not shown)	≥ 100 µM
CC1=C(c2nc(-c3ccc(C#N)cc3)cs2)C(c2cccnc2F)NC(=O)N1 (stereo not shown)	≥ 100 µM
CC1=C(c2nc(-c3ccc(C#N)cc3)cs2)C(c2ccc(Oc3ccccc3)nc2)NC(=O)N1 (stereo not shown)	50 to 100 µM
COc1ccc(C2NC(=O)NC(C)=C2c2nc(-c3ccc(C#N)cc3)cs2)cc1 (stereo not shown)	≥ 100 µM
CC1=C(c2nc(-c3ccc(C#N)cc3)cs2)C(c2cccc(O)c2)NC(=O)N1C (stereo not shown)	≥ 100 µM
CC1=C(c2nc(-c3ccccc3)cs2)C(c2cccc(O)c2)NC(=O)N1 (stereo not shown)	50 to 100 µM
CC1=C(c2nc(-c3ccc(C#N)cc3)cs2)C(c2ccc(=O)[nH]c2)NC(=O)N1 (stereo not shown)	≥ 100 µM
COc1ccc(C2NC(=O)NC(C)=C2c2nc(-c3ccc(C#N)cc3)cs2)cn1 (stereo not shown)	≥ 100 µM

Any idea what its CC50 at 7 days is? The molecule is CC1=C(c2nc(-c3ccc(C#N)cc3)cs2)C(c2cccc(F)c2)NC(=O)N1 (stereo not shown)
≥ 100 µM

So what does the record say about CC50 at 7 days for CC1=C(c2nc(-c3ccc(C#N)cc3)cs2)C(c2ccc(N(C)C)nc2)NC(=O)N1 (stereo not shown) ?
≥ 100 µM

Which CC50 at 7 days value belongs to Cc1nnc(C(=O)NC(C)(C)c2nc(C(=O)NCc3ccc(F)cc3)c(O)c(=O)n2C)o1 [Raltegravir, reference compound] ?
> 1 µM

Item CC1=C(c2nc(-c3ccc(C#N)cc3C)cs2)C(c2cccnc2F)NC(=O)N1 (stereo not shown) has what recorded CC50 at 7 days?
≥ 100 µM

# lookup: CC50 at 7 days of COc1ccc(-c2csc(C3=C(C)NC(=O)NC3c3ccc(F)c([N+](=O)[O-])c3)n2)cc1 (stereo not shown)
≥ 100 µM

----------
Test system: MAGI-CCR5 cells
Experiment: Cytotoxicity by MTS staining in uninfected MAGI-CCR5 cells
Type: cell-based
Details: 48 hours, read-out: TC50 (the source's name)
outcomeMeasure: CC50

// worked examples, CC50 included
molecule	outcomeMeasure	result
CC1=C(c2nc(-c3ccc(C#N)cc3C)cs2)C(c2cccnc2F)NC(=O)N1 (stereo not shown) [Example 86]	CC50	≥ 100 µM
CC1=C(c2nc(-c3ccc(C#N)cc3C)cs2)C(c2cccnc2F)NC(=O)N1 (stereo not shown) [Example 83]	CC50	< 50 µM
Cc1cn([C@H]2C[C@H](N=[N+]=[N-])[C@@H](CO)O2)c(=O)[nH]c1=O [AZT, reference compound]	CC50	> 1 µM

Let us examine a further case.
Entry Cc1ccc(-c2ccc3c(c2)C=C(C(=O)Nc2ccc(C[N+](C)(C)C4CCOCC4)cc2)CCC3)cc1.[Cl-] [TAK 779, reference compound] : reported CC50 = ?
> 10 µM

----------
Test system: HIV-1 K103N, Y181C (A17)
Assay: HIV-1 K103N, Y181C (A17) replication in PBMCs
Format: cell-based
Conditions: Virus A17 (K103N, Y181C) in PBMCs
outcomeMeasure: TI (TC50/IC50)

molecule	system	outcomeMeasure	result
CC1=C(c2nc(-c3ccc(C#N)cc3)cs2)C(c2cc3ccccc3[nH]2)NC(=O)N1 (stereo not shown)	HIV-1 K103N, Y181C (A17)	TI (TC50/IC50)	D (D < 10.0)
CC1=C(c2nc(-c3ccc(C#N)cc3)cs2)C(c2ccc(C(F)(F)F)nc2)NC(=O)N1 (stereo not shown)	HIV-1 K103N, Y181C (A17)	TI (TC50/IC50)	D (D < 10.0)
CC1=C(c2nc(-c3ccc(C#N)cc3)cs2)C(c2ccc(F)nc2)NC(=O)N1 (stereo not shown)	HIV-1 K103N, Y181C (A17)	TI (TC50/IC50)	D (D < 10.0)
Cc1cn([C@H]2C[C@H](N=[N+]=[N-])[C@@H](CO)O2)c(=O)[nH]c1=O [AZT, reference compound]	HIV-1 K103N, Y181C (A17)	TI (TC50/IC50)	>629.0
